Values were extracted from ChEMBL document CHEMBL2439971.

# Test system: SF-268
# Protocol Summary: Cytotoxicity against human SF268 cells at 10 uM after 48 hrs by sulforhodamine B assay relative to control
# Type: functional
Observable: Activity (%)
State the answer as a number, implicitly in %.

See these solved cases before continuing.
Smiles Data	Observable	Endpoint Value
CN1CCN(CCC(=O)Nc2ccc3c(c2)C(=O)c2cc(NC(=O)CCN4CCN(C)CC4)ccc2-3)CC1	Activity	109.98
CCCNCC(=O)Nc1ccc2c(c1)C(=O)c1cc(NC(=O)CNCCC)ccc1-2	Activity	81.33
O=C(CN1CCCC1)Nc1ccc2c(c1)C(=O)c1cc(NC(=O)CN3CCCC3)ccc1-2	Activity	107.06

Entry O=C(CCN1CCOCC1)Nc1ccc2c(c1)C(=O)c1cc(NC(=O)CCN3CCOCC3)ccc1-2 ; assay system SF-268; Activity recorded at 115.57

Entry CCSCCC(=O)Nc1ccc2c(c1)C(=O)c1cc(NC(=O)CCSCC)ccc1-2 , SF-268 data, Activity value: 122.03

---

# Tested on: A549
# Protocol Summary: Cytotoxicity against human A549 cells at 10 uM after 48 hrs by sulforhodamine B assay relative to control
# Assay type: functional
// values below are reported Activity
Write the number in % without appending the unit.

Smiles Data	Observable	Endpoint Value
CN1CCN(CCC(=O)Nc2ccc3c(c2)C(=O)c2cc(NC(=O)CCN4CCN(C)CC4)ccc2-3)CC1	Activity	106.9

Noted for O=C(CN1CCCC1)Nc1ccc2c(c1)C(=O)c1cc(NC(=O)CN3CCCC3)ccc1-2 : its Activity reads 76.89

Lab note: CCSCCC(=O)Nc1ccc2c(c1)C(=O)c1cc(NC(=O)CCSCC)ccc1-2 gave Activity of 106.07

Given item CCCSCC(=O)Nc1ccc2c(c1)C(=O)c1cc(NC(=O)CSCCC)ccc1-2 , the value recorded as its Activity is 99.19

The compound identified as CN1CCN(CC(=O)Nc2ccc3c(c2)C(=O)c2cc(NC(=O)CN4CCN(C)CC4)ccc2-3)CC1 registered its Activity at 106.99

---

# Test system: BT-549
# Protocol Summary: Cytotoxicity against human BT549 cells at 10 uM after 48 hrs by sulforhodamine B assay relative to control
# Assay type: functional
Observable: Activity (%)
The reply should be a number in %, with the unit left off.

Smiles Data	Experimental System	Activity [%]
CCCCNCC(=O)Nc1ccc2c(c1)C(=O)c1cc(NC(=O)CNCCCC)ccc1-2	BT-549	69.3

Item: CCNCCC(=O)Nc1ccc2c(c1)C(=O)c1cc(NC(=O)CCNCC)ccc1-2 | Activity: 119.2

Sample CN1CCN(CC(=O)Nc2ccc3c(c2)C(=O)c2cc(NC(=O)CN4CCN(C)CC4)ccc2-3)CC1 ; Activity observed: 110.6

---

# System: MCF7
# Protocol Summary: Cytotoxicity against human MCF7 cells at 10 uM after 48 hrs by sulforhodamine B assay relative to control
# Assay type: functional
In this section, each of the molecules is paired with its reported Activity.
# value in %; strip the unit string

Smiles Data	Unit Abbreviation	Activity
CCCCNCC(=O)Nc1ccc2c(c1)C(=O)c1cc(NC(=O)CNCCCC)ccc1-2	%	10.48
O=C(CCN1CCOCC1)Nc1ccc2c(c1)C(=O)c1cc(NC(=O)CCN3CCOCC3)ccc1-2	%	88.76
O=C(CN1CCCC1)Nc1ccc2c(c1)C(=O)c1cc(NC(=O)CN3CCCC3)ccc1-2	%	62.7
CCCSCC(=O)Nc1ccc2c(c1)C(=O)c1cc(NC(=O)CSCCC)ccc1-2	%	92.24
CCNCC(=O)Nc1ccc2c(c1)C(=O)c1cc(NC(=O)CNCC)ccc1-2	%	40.53
CCSCCC(=O)Nc1ccc2c(c1)C(=O)c1cc(NC(=O)CCSCC)ccc1-2	%	94.51

Lookup result for CN1CCN(CCC(=O)Nc2ccc3c(c2)C(=O)c2cc(NC(=O)CCN4CCN(C)CC4)ccc2-3)CC1 ; measured Activity: 95.72

// Activity lookup, molecule = CCNCCC(=O)Nc1ccc2c(c1)C(=O)c1cc(NC(=O)CCNCC)ccc1-2 , result: 87.69

Looking up CCCNCC(=O)Nc1ccc2c(c1)C(=O)c1cc(NC(=O)CNCCC)ccc1-2 , I found its Activity recorded as 42.23

# Activity of CN1CCN(CC(=O)Nc2ccc3c(c2)C(=O)c2cc(NC(=O)CN4CCN(C)CC4)ccc2-3)CC1 = 95.17
